- Test system: α-smooth muscle actin (αSMA) positive LL29 cells
- protocol.notes: Inhibition of fibrotic process: αSMA in TGF-β1 treated primary human fibroblasts from IPF patients;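 also: controls were TGF-β1 stimulated wells with DMSO vehicle (positive) and cells given DMSO alone (negative), cultured in F12 medium with 1% fetal bovine serum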
- Format: cell-based
- condition: Table 8; LL29 fibroblasts from IPF patients, TGF-β1 20 ng/mL, 4 days; dose-response 10 μM to […]
measurement.kind: EC50 (nM)

{"compound": "C[C@H](F)CN1CCC(C(=O)Nc2cc3cc(-c4cnn(C)c4)ccc3cn2)CC1 [Compound 311]", "unit.descriptor": "nM", "quantitative.readout": 76}

====

pEC50 reference
- tested.on: recombinant GSK3β kinase (Homo sapiens (Human), UniProt P49841)
- Sequence (P49841 whole entry): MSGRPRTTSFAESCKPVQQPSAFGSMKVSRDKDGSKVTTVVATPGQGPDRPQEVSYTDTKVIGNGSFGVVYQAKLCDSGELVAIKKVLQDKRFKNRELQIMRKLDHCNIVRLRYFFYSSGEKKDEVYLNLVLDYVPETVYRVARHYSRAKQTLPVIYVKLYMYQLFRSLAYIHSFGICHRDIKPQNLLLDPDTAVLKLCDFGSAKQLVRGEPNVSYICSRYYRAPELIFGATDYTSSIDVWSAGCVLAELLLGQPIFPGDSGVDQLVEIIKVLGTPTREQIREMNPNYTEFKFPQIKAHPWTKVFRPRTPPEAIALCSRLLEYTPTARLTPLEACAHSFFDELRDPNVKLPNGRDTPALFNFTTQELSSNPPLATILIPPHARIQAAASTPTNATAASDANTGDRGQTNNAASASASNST
- protocol.notes: GSK3β kinase assay (Ser/Thr 09 peptide Z-lyte FRET);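 also: kinase activity read as coumarin to fluorescein emission ratio, 11-point threefold dilutions from 10 µM to 0.0003 µM in duplicate, unphosphorylated and phosphorylated peptide as 0% and 100% controls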
- condition: 46 μM ATP, 1 h room temperature
pEC50: −log10 of the molar value.

{"smiles.repr": "CC(C)OCC(=O)Nc1cc2cc(-c3cncn3C)ccc2cn1", "pEC50": 7.04}
{"smiles.repr": "CC(C)CN1CCC(F)(C(=O)Nc2cc3cc(-c4cnn(C)c4)ccc3cn2)CC1", "pEC50": 6.46}
{"smiles.repr": "Cc1nc(CN2CCC(C(=O)Nc3cc4cc(-c5cnn(C)c5)ccc4cn3)CC2)no1", "pEC50": 7.49}
{"smiles.repr": "Cn1ncc(-c2ccc3cnc(NC(=O)C4CCN(C5COC5)CC4)cc3c2)c1CN1CCCCC1", "pEC50": 8.15}

====

- tested.on: recombinant DYRK1A kinase (Homo sapiens (Human))
- protocol.notes: DYRK1A kinase assay (Ser/Thr 18 peptide Z-lyte FRET)
- condition: 30 μM ATP, 1 h room temperature
Label fulfilled when EC50 < 50 nM; otherwise not fulfilled.

{"compound": "Cn1cc(-c2ccc3cnc(NC(=O)C4C(C)(C)C4(C)C)cc3c2)nn1", "tested.on": "recombinant DYRK1A kinase (Homo sapiens (Human))", "class": "fulfilled"}
{"compound": "Cc1cc(-c2ccc3cnc(NC(=O)C4CCN(CCC(F)(F)F)CC4)cc3c2)on1", "tested.on": "recombinant DYRK1A kinase (Homo sapiens (Human))", "class": "not fulfilled"}
{"compound": "CCN(CC)c1ncc(-c2ccc3cnc(NC(=O)CN4CCN(C)CC4)cc3c2)s1", "tested.on": "recombinant DYRK1A kinase (Homo sapiens (Human))", "class": "not fulfilled"}
{"compound": "Cn1nccc1-c1ccc2cnc(NC(=O)C3CCN(CCC(F)(F)F)CC3)cc2c1", "tested.on": "recombinant DYRK1A kinase (Homo sapiens (Human))", "class": "not fulfilled"}
{"compound": "Cc1ncc(-c2ccc3cnc(NC(=O)CN4C[C@H]5C[C@@H]4CO5)cc3c2)s1", "tested.on": "recombinant DYRK1A kinase (Homo sapiens (Human))", "class": "fulfilled"}
{"compound": "Cn1cc(-c2ccc3cnc(NC(=O)CN4CCCC4)cc3c2)nn1", "tested.on": "recombinant DYRK1A kinase (Homo sapiens (Human))", "class": "fulfilled"}
{"compound": "CC(C(=O)Nc1cc2cc(-c3cncs3)ccc2cn1)N1CCCC1 (centres unmarked)", "tested.on": "recombinant DYRK1A kinase (Homo sapiens (Human))", "class": "fulfilled"}

====

- Tested on: Tau phosphorylation at Ser396 (pSer396)
- protocol.notes: Tau phosphorylation assay (pSer396 ELISA / western blot) in SH-SY5Y cells
- Assay type: cell-based, human
- condition: Homo sapiens; SH-SY5Y cells, overnight (16-18 h) exposure; read-out: pSer396 Tau EC50

{"smiles.repr": "Cc1nnc(-c2ccc3cnc(NC(=O)C4CCN(C(=O)c5ccccc5)CC4)cc3c2)s1", "unit.descriptor": "nM", "relation.sign": "=", "EC50": 109}
{"smiles.repr": "Cn1cc(-c2ccc3cnc(NC(=O)C4CCN(CC(=O)O)CC4)cc3c2)cn1", "unit.descriptor": "nM", "relation.sign": ">", "EC50": 10000}
{"smiles.repr": "Cc1ncc(-c2ccc3cnc(NC(=O)CN4CCCC4)cc3c2)s1", "unit.descriptor": "nM", "relation.sign": "=", "EC50": 702}
{"smiles.repr": "Cn1cc(-c2cc3cc(NC(=O)C4CCNCC4)ncc3cc2F)cn1", "unit.descriptor": "nM", "relation.sign": "=", "EC50": 970}
{"smiles.repr": "Cc1nnc(-c2ccc3cnc(NC(=O)CN4CCOCC4)cc3c2)s1", "unit.descriptor": "nM", "relation.sign": "=", "EC50": 269}
{"smiles.repr": "Cc1nnc(-c2cc(F)c3cnc(NC(=O)CN4CCOCC4)cc3c2)s1", "unit.descriptor": "nM", "relation.sign": "=", "EC50": 252}
{"smiles.repr": "O=C(Nc1cc2cc(-c3cnc4n3CCNC4)ccc2cn1)C1CCN(CC2(C(F)(F)F)CC2)CC1", "unit.descriptor": "nM", "relation.sign": "=", "EC50": 1800}
{"smiles.repr": "C[C@@H]1CCCN1CC(=O)Nc1cc2cc(-c3cnco3)ccc2cn1", "unit.descriptor": "nM", "relation.sign": "=", "EC50": 1100}

====

- Test system: Tau phosphorylation at Ser396 (pSer396)
- protocol.notes: Tau phosphorylation assay (pSer396 ELISA / western blot) in SH-SY5Y cells;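 also: EC50 for reduction of Tau pSer396 in lysed cells, measured by colorimetric ELISA or chemiluminescent western blot, both using the same pSer396 antibody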
- Format: cell-based, human
- condition: Homo sapiens; SH-SY5Y cells, overnight (16-18 h) exposure; read-out: pSer396 Tau EC50
pEC50: −log10 of the molar value.

{"compound": "CN1CCC(C(=O)Nc2cc3cc(-c4cnn(C)c4CO)ccc3cn2)CC1 [Compound 985]", "relation.sign": "=", "pEC50": 5.49}
{"compound": "Cn1nccc1-c1ccc2cnc(NC(=O)C3CCN(CCC(F)(F)F)CC3)cc2c1 [Compound 270]", "relation.sign": "<", "pEC50": 5.00}
{"compound": "O=C(Nc1cc2cc(-c3cnc4n3CCNC4)ccc2cn1)C1CCN(C(=O)c2ccccc2)CC1 [Compound 991]", "relation.sign": "=", "pEC50": 5.00}
{"compound": "CN1CC2(CC(C(=O)Nc3cc4cc(-c5cncn5C)ccc4cn3)C2)C1 [Compound 523]", "relation.sign": "=", "pEC50": 5.66}
{"compound": "Cn1cc(-c2ccc3cnc(NC(=O)CN4CCOCC4)cc3c2)cn1 [Compound 338]", "relation.sign": "=", "pEC50": 5.77}
{"compound": "CN1CCC(N2CCC(C(=O)Nc3cc4cc(-c5cn(C)nn5)ccc4cn3)CC2)CC1 [Compound 477]", "relation.sign": "=", "pEC50": 6.73}
{"compound": "Cn1cc(-c2ccc3cnc(NC(=O)CN4CC(C)(C)C4)cc3c2)cn1 [Compound 273]", "relation.sign": "=", "pEC50": 6.31}
{"compound": "O=C(Nc1cc2cc(-c3cncs3)ccc2cn1)C1CNC1 [Compound 713]", "relation.sign": "=", "pEC50": 5.30}
{"compound": "Cn1cc(-c2ccc3cnc(NC(=O)OC(C)(C)C)cc3c2)cn1 [Compound 1025]", "relation.sign": "<", "pEC50": 5.00}
{"compound": "Cn1cc(-c2ccc3cnc(NC(=O)CN4CCC5(CC4)CC5)cc3c2)cn1 [Compound 296]", "relation.sign": "=", "pEC50": 6.01}
{"compound": "Cn1cc(-c2ccc3cnc(NC(=O)C4CCN(Cc5ccccn5)CC4)cc3c2)cn1 [Compound 359]", "relation.sign": "=", "pEC50": 6.28}
{"compound": "Cn1cc(-c2ccc3cnc(NC(=O)CN4CCN(C5CC5)CC4)cc3c2)cn1 [Compound 353]", "relation.sign": "=", "pEC50": 6.14}
{"compound": "Cn1cc(-c2cc(F)c3cnc(NC(=O)C4CCNCC4)cc3c2)cn1 [Compound 366]", "relation.sign": "=", "pEC50": 5.96}
{"compound": "CN1CCN(CC(=O)Nc2cc3cc(-c4cncs4)ccc3cn2)CC1 [Compound 767]", "relation.sign": "=", "pEC50": 6.00}
{"compound": "CC(C)CN1CCC(F)(C(=O)Nc2cc3cc(-c4cn(C)nn4)ccc3cn2)CC1 [Compound 281]", "relation.sign": "=", "pEC50": 6.29}
{"compound": "Cn1cc(-c2ccc3cnc(NC(=O)CN4CC5CC5C4)cc3c2)cn1 (stereo not drawn) [Compound 291]", "relation.sign": "=", "pEC50": 6.15}
{"compound": "Cc1ncc(-c2ccc3cnc(NC(=O)CN4CCN(C)CC4)cc3c2)s1 [Compound 995]", "relation.sign": "=", "pEC50": 5.62}
{"compound": "O=C(Nc1cc2cc(-c3cnco3)ccc2cn1)C1CCOCC1 [Compound 976]", "relation.sign": "=", "pEC50": 6.27}

====

- tested.on: recombinant DYRK1A kinase (Homo sapiens (Human), UniProt Q13627)
- protocol.notes: DYRK1A kinase assay (Ser/Thr 18 peptide Z-lyte FRET);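 also: Read-out is the coumarin to fluorescein emission ratio, referenced to unphosphorylated (0%) and phosphorylated (100%) Ser/Thr 18 peptide controls, values from dose-response curves by non-linear regression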
- condition: 30 μM ATP, 1 h room temperature

{"molecule": "Cc1ncc(-c2ccc3cnc(NC(=O)CN4CCN(C)CC4)cc3c2)o1", "unit.descriptor": "nM", "EC50": 28.9}
{"molecule": "CC(C(=O)Nc1cc2cc(-c3cnn(C)c3)ccc2cn1)N1CCCCC1 (stereo not shown)", "unit.descriptor": "nM", "EC50": 22.1}
{"molecule": "CN1CCN(CC23CC(C(=O)Nc4cc5cc(-c6cnn(C)c6)ccc5cn4)(C2)C3)CC1", "unit.descriptor": "nM", "EC50": 9.3}
{"molecule": "CC(C(=O)Nc1cc2cc(-c3cnn(C)c3)ccc2cn1)N1CCCC1 (stereo not shown)", "unit.descriptor": "nM", "EC50": 27.3}
{"molecule": "CN1CCN(C[C@H]2CC[C@H](C(=O)Nc3cc4cc(-c5cnn(C)c5)ccc4cn3)CC2)CC1", "unit.descriptor": "nM", "EC50": 1.5}
{"molecule": "Cn1cc(-c2ccc3cnc(NC(=O)C4CCN(CC5(C)COC5)CC4)cc3c2)nn1", "unit.descriptor": "nM", "EC50": 3.2}
{"molecule": "Cn1cc(-c2ccc3cnc(NC(=O)C4CCN(CC(C)(C)O)CC4)cc3c2)cn1", "unit.descriptor": "nM", "EC50": 3}
{"molecule": "O=C(Nc1cc2cc(-c3cncs3)ccc2cn1)C1CCN(C2COC2)CC1", "unit.descriptor": "nM", "EC50": 1}
{"molecule": "O=C(Nc1cc2cc(-c3cncs3)ccc2cn1)C1CCN(C(=O)CN2CCCC2)CC1", "unit.descriptor": "nM", "EC50": 0.9}
{"molecule": "Cc1nnc(-c2ccc3cnc(NC(=O)CN4CCOC[C@H]4C)cc3c2)s1", "unit.descriptor": "nM", "EC50": 16.8}
{"molecule": "Cn1cc(-c2ccc3cnc(NC(=O)C4CCN(CC(=O)OC(C)(C)C)CC4)cc3c2)cn1", "unit.descriptor": "nM", "EC50": 2.6}
{"molecule": "CN1CCN(C[C@H]2CC[C@H](C(=O)Nc3cc4cc(-c5cn(C)nn5)ccc4cn3)CC2)CC1", "unit.descriptor": "nM", "EC50": 1.2}
{"molecule": "Cc1nnc(-c2ccc3cnc(NC(=O)C4CCN(CC(C)C)CC4)cc3c2)o1", "unit.descriptor": "nM", "EC50": 10.4}
{"molecule": "Cn1cc(-c2cc3cc(NC(=O)C4CCNCC4)ncc3cc2F)cn1", "unit.descriptor": "nM", "EC50": 2.8}
{"molecule": "Cc1nnc(-c2ccc3cnc(NC(=O)C4CCN(C(=O)c5ccccc5)CC4)cc3c2)s1", "unit.descriptor": "nM", "EC50": 2.1}
{"molecule": "Cn1cncc1-c1ccc2cnc(NC(=O)C(C)(C)F)cc2c1", "unit.descriptor": "nM", "EC50": 9.6}
{"molecule": "Cn1cc(-c2ccc3cnc(NC(=O)C4CCN(CC(C)(C)F)CC4)cc3c2)cn1", "unit.descriptor": "nM", "EC50": 1.4}
{"molecule": "Cn1cncc1-c1ccc2cnc(NC(=O)C3CCC(F)(F)CC3)cc2c1", "unit.descriptor": "nM", "EC50": 1.3}
{"molecule": "Cn1cncc1-c1ccc2cnc(NC(=O)C3(F)CCCCC3)cc2c1", "unit.descriptor": "nM", "EC50": 9.8}
{"molecule": "Cc1nnc(-c2ccc3cnc(NC(=O)CN4CCCCC4)cc3c2)s1", "unit.descriptor": "nM", "EC50": 13.9}
{"molecule": "[2H]c1nc(NC(=O)CN2CCCC2)cc2cc(-c3cnn(C)c3)ccc12", "unit.descriptor": "nM", "EC50": 11.7}
{"molecule": "CCN1CCC(F)(C(=O)Nc2cc3cc(-c4cn(C)nn4)ccc3cn2)CC1", "unit.descriptor": "nM", "EC50": 11.5}
{"molecule": "Cn1ncc(-c2ccc3cnc(NC(=O)C(C)(C)F)cc3c2)c1CN1CCCCC1", "unit.descriptor": "nM", "EC50": 10.8}
{"molecule": "Cn1cc(-c2ccc3cnc(NC(=O)C4CC5(C4)CN(CCF)C5)cc3c2)cn1", "unit.descriptor": "nM", "EC50": 2.9}
{"molecule": "CC(C)OCCN1CCC(C(=O)Nc2cc3cc(-c4cnn(C)c4)ccc3cn2)CC1", "unit.descriptor": "nM", "EC50": 3}
{"molecule": "Cc1ncc(-c2ccc3cnc(NC(=O)C4CC(F)(F)C4)cc3c2)n1C", "unit.descriptor": "nM", "EC50": 5.8}
{"molecule": "O=C(Nc1cc2cc(-c3cnco3)ccc2cn1)C1CCN(CCC(F)(F)F)CC1", "unit.descriptor": "nM", "EC50": 2.4}
{"molecule": "Cn1cc(-c2ccc3cnc(NC(=O)C4CCC(F)(F)CC4)cc3c2)cn1", "unit.descriptor": "nM", "EC50": 3.7}
{"molecule": "CN1CCC(C(=O)Nc2cc3cc(-c4cnc5n4CCNC5)ccc3cn2)CC1", "unit.descriptor": "nM", "EC50": 16.2}
{"molecule": "O=C(Nc1cc2cc(-c3cnc4n3CCNC4)ccc2cn1)[C@H]1CCCN1", "unit.descriptor": "nM", "EC50": 42.8}
{"molecule": "CO[C@H]1CC[C@H](C(=O)Nc2cc3cc(-c4cncn4C)ccc3cn2)CC1", "unit.descriptor": "nM", "EC50": 0.8}
{"molecule": "O=C(CN1CCCC1)Nc1cc2cc(-c3cnco3)ccc2cn1", "unit.descriptor": "nM", "EC50": 13.7}
{"molecule": "C[C@@H]1CCCN1CC(=O)Nc1cc2cc(-c3cnco3)ccc2cn1", "unit.descriptor": "nM", "EC50": 19.2}
{"molecule": "O=C(CN1CCCC1)Nc1cc2cc(-c3cn[nH]c3C(F)(F)F)ccc2cn1", "unit.descriptor": "nM", "EC50": 5140}
